- Test system: Mycobacterium tuberculosis H37Rv (331/88)
- protocol_details: Antimycobacterial micromethod in Šula's medium, M. tuberculosis
- Format: cell-based
- condition_details: 504 h, 21 days incubation at 37 °C, read-out: MIC Mtb. 331/88 21 d
measured_attribute: log10 MIC (log10 of the value in µM)
// do not treat as linear: log10 of MIC, unit µM

*Q* Let me know recorded log10 MIC for `O=C(O)c1ccc(N=Cc2ccc([N+](=O)[O-])o2)cc1` , thanks.
*A* 2.10

*Q* Give log10 MIC for `O=C(O)c1ccc(N=Cc2cc(I)ccc2O)cc1`
*A* 2.40

*Q* In one line, give reported log10 MIC of the entry `COc1ccccc1C=Nc1ccc(C(=O)O)cc1` .
*A* 3.00

*Q* Please report log10 MIC for the following compound: O=C(O)c1ccc(NCc2ccccc2O)cc1 [1u, 4-[(2-Hydroxybenzyl)amino]benzoic acid]
*A* 3.00

*Q* Give reported log10 MIC value for NNC(=O)c1ccncc1 [INH, isoniazid, reference compound]
*A* 0.00

*Q* Entry `O=C(O)c1ccc(N=Cc2cc(O)ccc2O)cc1` needs its log10 MIC filled in; supply it.
*A* 3.00

*Q* Give log10 MIC for the following compound: `O=C(O)c1ccc(N=Cc2cc(I)cc(I)c2O)cc1`
*A* 2.40

*Q* Provide one value: measured log10 MIC of `CC(C)(C)c1ccc(O)c(C=Nc2ccc(C(=O)O)cc2)c1`
*A* 2.40

*Q* Dear colleague, please send me the reported log10 MIC for `COc1ccc(O)c(C=Nc2ccc(C(=O)O)cc2)c1` when you can.
*A* 2.70

*Q* Write down log10 MIC measured for item `O=C(O)c1ccc(N=Cc2ccc(O)cc2)cc1`
*A* 3.00
